assay: C0 in CD-1 mouse at 3 mg/kg, iv measured upto 24 hrs by LC-MS/MS analysis; assay type: ADME, organism-based; conditions: in vivo
Measured Property: C0 at 24 h (µM)
State just the number; it will be interpreted in µM.

Measured C0 at 24 h, CC1=C(C(=O)NCc2cnn(C)c2)C(c2ccc(C)cc2Cl)N=C(Nc2nc3ccc(F)c(N)c3o2)N1 (racemic) : 8.25

====

test: Drug concentration in CD-1 mouse plasma at 50 mg/kg, ip measured after 7 hrs by LC-MS/MS analysis; format: ADME, organism-based
Measured Property: concentration at 7 h

get_value(item= CC1=C(C(=O)NCc2cnn(C)c2)C(c2ccc(C)cc2Cl)N=C(Nc2nc3ccc(F)c(N)c3o2)N1 (racemic) , readout=concentration at 7 h) returns > 1000 nM

====

test: Dose normalized AUClast in CD-1 mouse at 30 mg/kg, po measured upto 24 hrs by LC-MS/MS analysis; assay type: ADME, organism-based; settings: in vivo
Measured Property: AUClast/dose

The compound listed as CC1=C(C(=O)NCc2cnn(C)c2)C(c2ccc(C)cc2Cl)N=C(Nc2nc3ccc(F)c(N)c3o2)N1 (racemic) has a reported AUClast/dose of 278 ng·h/mL/(mg/kg)

====

test: Metabolic stability in mouse liver microsome assessed as half life; format: ADME; settings: microsomes
Listed below: t1/2 values for each entry.
# unit: min | format: bare number

Some solved cases for reference:
CCn1cc(CNC(=O)C2=C(C)NC(Nc3nc4ccc(F)c(N)c4o3)=N[C@H]2c2ccc(C)cc2Cl)cn1 = 7
CC1=C(C(=O)NCc2cnn(C)c2)C(c2ccc(C)cc2Cl)N=C(Nc2nc3cccc(N)c3o2)N1 (racemic) = 11
CC1=C(C(=O)NCc2cnn(C)c2)C(c2ccc(C)cc2Cl)N=C(Nc2nc3ccc(F)c(N)c3o2)N1 (racemic) = 14
CCn1cc(CNC(=O)C2=C(C)NC(Nc3nc4ccc(F)c(N)c4o3)=N[C@@H]2c2ccc(C)cc2Cl)cn1 = 12

In plain terms, CCn1cc(CNC(=O)C2=C(C)NC(Nc3nc4ccc(F)c(N)c4o3)=NC2c2ccc(C)cc2Cl)cn1 (racemic) has a documented t1/2 of 14

Please fill in: t1/2 reported for CC1=C(C(=O)NCc2cnn(C)c2)[C@H](c2ccc(C)cc2Cl)N=C(Nc2nc3cccc(N)c3o2)N1 = 7

====

test: Dose normalized AUClast in CD-1 mouse at 3 mg/kg, iv measured upto 24 hrs by LC-MS/MS analysis; type: ADME, organism-based; details: in vivo
Measured Property: AUClast/dose

Entry under test: CC1=C(C(=O)NCc2cnn(C)c2)C(c2ccc(C)cc2Cl)N=C(Nc2nc3ccc(F)c(N)c3o2)N1 (racemic) . Its AUClast/dose was 812 ng·h/mL/(mg/kg)

====

experiment: Observed volume of distribution at steady state in CD-1 mouse at 3 mg/kg, iv measured upto 24 hrs by LC-MS/MS analysis; format: ADME, organism-based; details: in vivo, read-out: Vdss
Measured Property: Vd
Your reply should be a number followed by the unit it is expressed in.

Form: compound = CC1=C(C(=O)NCc2cnn(C)c2)C(c2ccc(C)cc2Cl)N=C(Nc2nc3ccc(F)c(N)c3o2)N1 (racemic) ; Vd = 0.652 L/kg

====

Some compounds, each annotated with its measured t1/2.
experiment: Metabolic stability in human liver microsomes assessed as half life; type: ADME, Microsome
Enter your answer as a number in min; do not include the unit.

Some solved cases for reference:
CCn1cc(CNC(=O)C2=C(C)NC(Nc3nc4ccc(F)c(N)c4o3)=NC2c2ccc(C)cc2Cl)cn1 (racemic) = 8
CCn1cc(CNC(=O)C2=C(C)NC(Nc3nc4ccc(F)c(N)c4o3)=N[C@H]2c2ccc(C)cc2Cl)cn1 = 12
CCn1cc(CNC(=O)C2=C(C)NC(Nc3nc4ccc(F)c(N)c4o3)=N[C@@H]2c2ccc(C)cc2Cl)cn1 = 10
CC1=C(C(=O)NCc2cnn(C)c2)C(c2ccc(C)cc2Cl)N=C(Nc2nc3cccc(N)c3o2)N1 (racemic) = 32

Documented t1/2 of CCn1cc(CNC(=O)C2=C(C)NC(Nc3nc4cccc(N)c4o3)=NC2c2ccc(C)cc2Cl)cn1 (racemic) : 120

# t1/2 (compound: CC1=C(C(=O)NCc2cnn(C)c2)[C@H](c2ccc(C)cc2Cl)N=C(Nc2nc3cccc(N)c3o2)N1 ) is 37
